- TARGET OR SYSTEM: NF-κB p50 (rhNF-κB) (Homo sapiens, UniProt P19838 P19838:1-433)
- Sequence (P19838 1-433, one chain of several): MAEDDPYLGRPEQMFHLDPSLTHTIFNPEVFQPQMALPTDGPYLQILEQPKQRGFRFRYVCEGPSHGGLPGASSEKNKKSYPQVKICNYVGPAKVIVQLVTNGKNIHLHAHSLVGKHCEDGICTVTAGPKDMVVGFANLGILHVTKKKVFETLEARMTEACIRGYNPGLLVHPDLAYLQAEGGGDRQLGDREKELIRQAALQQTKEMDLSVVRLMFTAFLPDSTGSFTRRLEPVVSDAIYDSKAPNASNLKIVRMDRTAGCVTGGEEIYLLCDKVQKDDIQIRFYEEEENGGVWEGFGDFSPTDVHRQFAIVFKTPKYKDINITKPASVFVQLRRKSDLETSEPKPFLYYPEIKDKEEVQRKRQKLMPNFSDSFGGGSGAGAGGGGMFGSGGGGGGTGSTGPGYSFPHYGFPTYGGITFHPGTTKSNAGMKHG
- ASSAY: SPR; PBS, 0.05% Nonidet P-40, 2.5 mM DTT, 25 C; dissociation rate 10 times larger than 5R01-68
- MEASUREMENT PARAMETERS: tags: Promega; chain copies: 2 (inferred); hairpin
pKd: −log10 of the molar value.
MEASUREMENT NAME: pKd

{"BINDER": "5R01mut-68 (ssDNA) DNA: CGGGGAATCCCCGTAGGGACATTACGCCGGGGATTCCCCAGGAGTGGACTGATACGATCGATTGACAG", "MEASUREMENT NAME": "pKd", "OBSERVED MEASUREMENT": 9.85}

Reference for the values: patent US20140194320
